Data credit: patent US20030068675

# tested-system: T1, ZFP SBS#461 (synthetic)
# T1 chain: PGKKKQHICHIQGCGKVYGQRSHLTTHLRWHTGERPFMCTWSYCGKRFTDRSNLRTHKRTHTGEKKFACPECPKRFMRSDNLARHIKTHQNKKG
# protocol-summary: EMSA
# experimental-setup: tags: MBP fusion
metric: Kd (nM)
Write it as a number; the unit nM goes unstated.

For the binder GAGTACTGTA (dsDNA) DNA 1: GAGTACTGTA DNA 2: TACAGTACTC , what Kd is on record?
120
